assayedTarget: cPLA2 crudely purified from the cytoplasm fraction of U937 (Homo sapiens, UniProt P47712)
Construct: cPLA2 crudely purified from the cytoplasm fraction of U937; endogenous in cells; host or cells: U937 cells (cytoplasm fraction, crude purification)
Sequence (P47712 1-749): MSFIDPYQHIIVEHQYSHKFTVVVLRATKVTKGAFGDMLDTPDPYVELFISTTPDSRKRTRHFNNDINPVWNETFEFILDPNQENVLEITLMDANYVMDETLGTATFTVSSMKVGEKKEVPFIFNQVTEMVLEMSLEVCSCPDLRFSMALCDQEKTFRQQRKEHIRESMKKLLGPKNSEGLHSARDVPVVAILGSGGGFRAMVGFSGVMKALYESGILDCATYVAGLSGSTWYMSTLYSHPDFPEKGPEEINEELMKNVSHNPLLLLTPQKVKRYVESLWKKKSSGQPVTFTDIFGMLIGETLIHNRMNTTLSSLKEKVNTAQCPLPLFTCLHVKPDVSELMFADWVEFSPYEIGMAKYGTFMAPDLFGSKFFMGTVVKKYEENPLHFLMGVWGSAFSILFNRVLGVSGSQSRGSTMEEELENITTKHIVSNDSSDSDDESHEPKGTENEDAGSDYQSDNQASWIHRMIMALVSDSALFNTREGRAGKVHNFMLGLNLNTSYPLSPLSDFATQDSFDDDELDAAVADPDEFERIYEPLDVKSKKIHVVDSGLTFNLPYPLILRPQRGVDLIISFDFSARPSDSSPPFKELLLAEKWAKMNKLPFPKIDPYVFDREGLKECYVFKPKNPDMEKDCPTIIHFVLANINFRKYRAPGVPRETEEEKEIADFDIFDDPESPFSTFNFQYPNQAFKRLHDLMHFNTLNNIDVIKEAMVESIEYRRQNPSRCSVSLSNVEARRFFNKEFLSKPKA
testName: Measurement of cPLA2 inhibitory activity (release of [14C]-arachidonic acid from phosphatidyl choline liposome)
Format: biochemical
conditionParameters: cPLA2 from U937 cytoplasm fraction, [14C]arachidonyl-phosphatidyl choline liposome, 37° C., 60 minutes; read-out: cPLA2 inhibitory activity, 50% inhibiting concentration IC50
pIC50: −log10 of the molar value. Counter-ions that a name gives are not always drawn.
# label = Condition met if pIC50 >= 7 else Condition not met

[[record]]
compound = "O=C(O)CCc1ccc2c(c1)c(CCc1ccccc1)cn2-c1ccc(OCCCc2cccnc2)cc1 [Example 257]"
assayedtarget = "cPLA2 crudely purified from the cytoplasm fraction of U937 (Homo sapiens, UniProt P47712)"
qualitativelabel = "Condition met"

[[record]]
compound = "CCCOc1cccc(-n2cc(CCc3ccccc3)c3cc(CCC(=O)O)ccc32)c1"
assayedtarget = "cPLA2 crudely purified from the cytoplasm fraction of U937 (Homo sapiens, UniProt P47712)"
qualitativelabel = "Condition not met"


(Q) Determine whether measured pIC50 meets or exceeds 7 for O=C(O)CCc1ccc2c(c1)c(CCc1ccccc1)cn2-c1ccc(OCCN2CCCC2)cc1 [Example 223, hydrochloride]
(A) Condition met

(Q) Say whether CC(C(=O)c1cn(-c2ccccc2)c2ccc(CCC(=O)O)cc12)c1ccccc1 (stereo not shown) shows pIC50 of 7 or more.
(A) Condition not met

(Q) Please check the record O=C(CCc1ccc2c(c1)c(CCc1ccccc1)cn2-c1ccc(OC(F)F)cc1)C(F)(F)F and state if its pIC50 is at or above 7.
(A) Condition not met

(Q) Is it the case that COc1ccc(-n2cc(CCc3ccccc3)c3cc(CCC(=O)O)ccc32)cc1OC has pIC50 reaching or exceeding 7?
(A) Condition not met

(Q) Answer whether pIC50 of CC(C)Oc1ccc(-n2cc(CCc3ccccc3)c3cc(CCC(=O)O)ccc32)cc1 is greater than or equal to 7.
(A) Condition met

(Q) Is pIC50 for O=C(O)CCc1ccc2c(c1)c(CCc1ccc(F)cc1)cn2-c1ccccc1 at or above 7?
(A) Condition not met

(Q) # bool: pIC50 of COCCOc1ccc(-n2cc(CCc3ccccc3)c3cc(CCC(=O)O)ccc32)cc1 >= 7
(A) Condition met

---

Tested on: PGE2 production in mouse peritoneal exudate cells
testName: LPS-induced PGE2 production system using mouse peritoneal exudate cells
Assay type: cell-based
conditionParameters: LPS 10 μg/ml, 6 hours
Counter-ions that a name gives are not always drawn.
Reported log10 of IC50 values are given for each entry in this list.
Values are log10 of IC50 in nM.

Some entries whose results are on file:
[[record]]
compound = "O=C(O)CCc1ccc2c(c1)c(CCc1ccccc1)cn2-c1ccccc1O"
endpoint = "log10 of IC50"
resultvalue = 3.09

[[record]]
compound = "CN(C)c1ccc(-n2cc(CCc3ccccc3)c3cc(CCC(=O)O)ccc32)nc1 [Example 138, hydrochloride]"
endpoint = "log10 of IC50"
resultvalue = 2.76

[[record]]
compound = "O=C(O)CCc1ccc2c(c1)c(CCc1ccccc1)cn2-c1cccnc1 [Example 128, hydrochloride]"
endpoint = "log10 of IC50"
resultvalue = 3.81


The value of log10 of IC50 measured for the compound CCOc1ccc(-n2cc(CCc3ccccc3)c3cc(CCC(=O)C(F)(F)F)ccc32)cc1 turned out to be 3.35

Entry O=C(O)CCc1ccc2c(c1)c(CCc1ccccc1)cn2-c1ccc(OC(F)F)cc1 , log10 of IC50 reported as 2.93

Entry under test: CCOc1ccc(-n2cc(CCc3ccccc3)c3cc(CCC(=O)NC#N)ccc32)cc1 . Its log10 of IC50 was 2.48

compound O=C(O)CCc1ccc2c(c1)c(CCc1ccccc1)cn2-c1cccc(O)c1 , log10 of IC50 observed: 3.35

// field: log10 of IC50; key: O=C(O)CCc1ccc2c(c1)c(CCc1ccccc1)cn2-c1ccc(OCc2ccccc2)cc1 ; value = 2.11

response.value for O=C(O)CCc1ccc2c(c1)c(CCc1ccccc1)cn2-c1ccc(F)cc1 (field: log10 of IC50) = 2.45

---

assayedTarget: cPLA2 crudely purified from the cytoplasm fraction of U937 (Homo sapiens, UniProt P47712)
Construct: cPLA2 crudely purified from the cytoplasm fraction of U937; endogenous in cells; host or cells: U937 cells (cytoplasm fraction, crude purification)
testName: Measurement of cPLA2 inhibitory activity (release of [14C]-arachidonic acid from phosphatidyl choline liposome)
Format: biochemical
conditionParameters: cPLA2 from U937 cytoplasm fraction, [14C]arachidonyl-phosphatidyl choline liposome, 37° C., 60 minutes; read-out: cPLA2 inhibitory activity, 50% inhibiting concentration IC50
pIC50: −log10 of the molar value.
Think of 7 as a floor: if pIC50 stands on it or above, it is YES; beneath it, NO.

Before answering, review these 4 worked examples.
[[record]]
compound = "Nc1cccc(-n2cc(CCc3ccccc3)c3cc(CCC(=O)O)ccc32)c1"
assayedtarget = "cPLA2 crudely purified from the cytoplasm fraction of U937 (Homo sapiens, UniProt P47712)"
qualitativelabel = "YES"

[[record]]
compound = "O=C(O)CCc1ccc2c(c1)c(CCc1ccccc1)cn2-c1cc(F)c(OCc2ccccc2)c(F)c1"
assayedtarget = "cPLA2 crudely purified from the cytoplasm fraction of U937 (Homo sapiens, UniProt P47712)"
qualitativelabel = "NO"

[[record]]
compound = "O=C(O)/C=C/c1ccc2c(c1)c(CCc1ccccn1)cn2-c1ccc(O)cc1"
assayedtarget = "cPLA2 crudely purified from the cytoplasm fraction of U937 (Homo sapiens, UniProt P47712)"
qualitativelabel = "NO"

[[record]]
compound = "c1ccc(CCc2cn(-c3ccccc3)c3ccc(CCc4nnn[nH]4)cc23)cc1"
assayedtarget = "cPLA2 crudely purified from the cytoplasm fraction of U937 (Homo sapiens, UniProt P47712)"
qualitativelabel = "NO"


(Q) // inclusive: pIC50 at least 7? input: CCC(Cc1cn(-c2ccccc2)c2ccc(CCC(=O)O)cc12)c1ccccc1 (stereo not shown)
(A) NO

---

assayedTarget: cPLA2 crudely purified from the cytoplasm fraction of U937 (Homo sapiens)
Construct: cPLA2 crudely purified from the cytoplasm fraction of U937; endogenous in cells; host or cells: U937 cells (cytoplasm fraction, crude purification)
testName: Measurement of cPLA2 inhibitory activity (release of [14C]-arachidonic acid from phosphatidyl choline liposome)
Assay type: biochemical
conditionParameters: cPLA2 from U937 cytoplasm fraction, [14C]arachidonyl-phosphatidyl choline liposome, 37° C., 60 minutes; read-out: cPLA2 inhibitory activity, 50% inhibiting concentration IC50
Description: The cPLA2 inhibitory activity was measured based on the method described in the document [See H. Naraba et al., J. Immunol. 160, 2974-2982 (1998)] and modified in the following way. A DMSO solution of the present invitation compounds was diluted to 2.5 times the final concentration with the assay buffer (4 mM CaCl2, 2 mM dithiothreitol, 150 mM NaCl, 50 mM HEPES buffer solution (pH7.5)) containing 0.55 mg/ml BSA. […]
Counter-ions that a name gives are not always drawn.
Reported IC50 by item:
Entry rule: numbers only, all in nM.

Recorded IC50, per entry:
[[record]]
compound = "O=C(O)CCc1ccc2c(c1)c(CCc1ccccn1)cn2-c1ccc(O)cc1 [Example 269, hydrochloride]"
resultvalue = 77

[[record]]
compound = "CC(C)(C)C(=O)Nc1cccc(-n2cc(CCc3ccccc3)c3cc(CCC(=O)O)ccc32)c1"
resultvalue = 210

[[record]]
compound = "O=C(O)/C=C/c1ccc2c(c1)c(CCc1ccccn1)cn2-c1ccccc1"
resultvalue = 1440


IC50 in this record for O=C(O)CCc1ccc2c(c1)c(CCc1ccccc1)cn2-c1ccccc1O : 779

The measured IC50 associated with O=C(O)CCc1ccc2c(c1)c(CCc1ccccc1)cn2-c1ccc(O)cc1 reads 11

Hello, the source for this data is patent US8293781B2, in case you need it.
